- studySystem: S1PR1 (Homo sapiens)
- Sequence (P21453 whole entry): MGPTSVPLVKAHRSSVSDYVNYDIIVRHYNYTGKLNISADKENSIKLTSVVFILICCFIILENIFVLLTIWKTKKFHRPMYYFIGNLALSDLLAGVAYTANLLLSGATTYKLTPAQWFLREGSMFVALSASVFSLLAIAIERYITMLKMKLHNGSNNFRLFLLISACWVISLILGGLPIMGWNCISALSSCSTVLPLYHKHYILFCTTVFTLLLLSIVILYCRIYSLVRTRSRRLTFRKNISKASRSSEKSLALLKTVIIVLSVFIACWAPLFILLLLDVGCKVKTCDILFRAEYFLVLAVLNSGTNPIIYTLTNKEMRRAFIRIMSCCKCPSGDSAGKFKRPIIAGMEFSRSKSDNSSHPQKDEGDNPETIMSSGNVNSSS
- testMethodNotes: S1P1 GPCR cell-based agonist arrestin biosensor assay (Eurofins DiscoverX)
- testParameters: FIG. 1C
pEC50: −log10 of the molar value.

>  <sampleSmiles>
Oc1cccc(-c2noc(-c3cc(-c4ccccc4)c(C(F)(F)F)s3)n2)c1

>  <pEC50>
7.37

$$$$
